# System: ACHN
# Test protocol: NCI tumour cell line growth inhibition, 48 h
The source made the active and inactive calls. Cut-off read from the data, not from the text of the source: active = GI50 up to about 1.1 µM and inactive = higher.
Respond with a class label; see 1 (active), -1 (inactive)

Query string: # lookup: test call for `O=c1[nH][nH]c(=O)n1Cc1ccccc1Cn1c(=O)[nH][nH]c1=O`
Result string: -1

Query string: I would be grateful if you could indicate the recorded call for CC/C(C)=C1\CCC(CN2CCOCC2)C1=O (configuration not stated) .
Result string: -1

Query string: Tell me the assay call for `O=C1C=CC(=O)c2c(O)c(N3CCN(c4ccccn4)CC3)cc(O)c21` please.
Result string: -1

Query string: Hi, do you know how CC12CCC(C(=O)OC1=O)C2(C)C (configuration not stated) came out in this test?
Result string: -1

Query string: Could you please tell me the result logged for `CCOc1cc(C=O)c2c(ccc3ccc(OC)c(OC)c32)c1OC` in this assay?
Result string: -1

Query string: Please indicate how the test categorized `Cc1cc(-c2nc3ccccc3s2)ccc1NC(=O)[C@H](C)N` .
Result string: -1

Query string: What did the test return for `O=C(CSc1nc2ccc(I)cc2c(=O)n1Cc1ccccc1)N/N=C/c1ccccc1` ?
Result string: -1

Query string: For `CCOC(=O)/C=C(\C(=O)OCC)n1ccc(=O)[nH]c1=O` , which call appears in the assay record?
Result string: -1

Query string: Which outcome was entered for the molecule `CC(C)NCCCNc1c2ccccc2nc2cccc([N+](=O)[O-])c12` in this test?
Result string: 1

Query string: Kindly provide the recorded test outcome for the following molecule: `Cn1c2cccc3nnc4cccc(c4c32)n1C`
Result string: -1

Query string: Short answer needed: outcome of this test for `CN(C)CCC(/C=C/c1ccccc1)=N\Nc1ccccc1` ?
Result string: 1

Query string: Each molecule tested received a call. Report the one for `O=C(C#CP(=O)(O)c1ccccc1)c1ccccc1` .
Result string: -1

Query string: How was O=S(=O)(CC(Cl)c1ccccc1)c1nc2ccccc2s1 (configuration not stated) classified in this test?
Result string: -1

Query string: Hey, what did the test say about `Cc1ccc(S(=O)(=O)N/N=C/C2(c3ccccc3)c3ccccc3-c3ccccc32)cc1` ?
Result string: -1

Query string: Would you mind telling me which call this test gave `C/C(=N\NC(N)=S)c1ccc2c(c1)Sc1ccccc1O2` ?
Result string: -1

Query string: Hello, I am checking results. What call was entered for `C[Si](C)(C)[C@@]1([Se]c2ccccc2)CC[C@@H]1C(=O)c1ccccc1` ?
Result string: -1

Query string: Query: recorded result category for `CCOc1ccc(N/C(=C(/C(Cl)=C(/Cl)NC(C)(C)C)[N+](=O)[O-])n2nnc3ccccc32)cc1` in this test
Result string: -1

Query string: Entry `CC(=O)NC1=C(Sc2ccc(Cl)cc2)C(=O)c2ccccc2C1=O` : call = ?
Result string: -1

Query string: Lab log entry: COc1cccc(C2CC(C)(O)Oc3cc4c(cc32)OCO4)c1 (configuration not stated) — outcome as called in the assay?
Result string: -1

Query string: Test call for this molecule, please: `CC1=C(N2CC2)C(=O)C(CO)=C(N2CC2)C1=O`
Result string: 1

Query string: Answer briefly: the call reported for `C/C(=N\NC(=O)c1ccccc1O)c1cccc(/C(C)=N/NC(=O)c2ccccc2O)n1.[Cl-].[Cl-].[Zn+2]` in this assay.
Result string: -1

Query string: Outcome logged for C=CCN1C(=O)CC2[C@@H]3CCc4cc(O)ccc4C3CC[C@]2(C)C1=O (some centres not stated) in this assay:
Result string: -1

----------
Record form. Attribute: GI50. Fill in for each entry.
# Tested on: COLO 205
# Test protocol: NCI tumour cell line growth inhibition, 48 h
The source made the active and inactive calls. No stated cut-off is given here; in the data, active = GI50 up to about 1.1 µM and inactive = higher.

Query string: Output measured GI50 for this item: COc1cc(C2SCC(=O)N2c2ccc(-c3ccc(-n4c(-c5ccccc5)nc5ccccc5c4=O)cc3)cc2)ccc1O (configuration not stated)
Result string: > 100 µM (inactive)

Query string: Please give the documented GI50 of CC1=C(C(=O)OC23CC4CC(CC(C4)C2)C3)C(c2ccccc2OC(F)F)C(C(=O)OC23CC4CC(CC(C4)C2)C3)=C(C)N1 (configuration not stated)
Result string: > 100 µM (inactive)

Query string: Please give measured GI50 of the following entry: `O=C1c2cc(-c3ccccc3)cnc2S(=O)(=O)N1c1ccc(Br)cc1`
Result string: > 100 µM (inactive)

Query string: Give me measured GI50, please, for this molecule: `COc1cccc(-n2c3nc(=O)n(C)c(=O)c-3nc3ccccc32)c1`
Result string: 3.5 µM (inactive)

Query string: Please report the measured GI50 for `NC(=O)OCc1c(-c2ccccc2)nn(-c2ccccc2)c1COC(N)=O`
Result string: > 100 µM (inactive)

Query string: Give the reported value of GI50 for this record: CN(C)CC1CCC/C1=N/OC(=O)c1ccccc1 (configuration not stated)
Result string: > 100 µM (inactive)

Query string: Return GI50 for the following molecule: `NNC(=O)CSc1nc2ccccc2c(=O)n1N`
Result string: > 100 µM (inactive)

Query string: Give a short answer stating reported GI50 for `C(=N\c1cnc2ccccc2c1)/c1ccc2ccccc2n1` .
Result string: > 100 µM (inactive)

Query string: Query GI50 for `CC(C)=NNc1cnnc2ccc([N+](=O)[O-])cc12`
Result string: 36.6 µM (inactive)

Query string: Indicate the recorded GI50 value for this molecule: CC(O)(c1ccccc1)c1nccc2ccccc12 (configuration not stated)
Result string: 70.6 µM (inactive)

Query string: Look up and report measured GI50 for this entry: `Cc1ccc2nc(CN(CCO)CCO)cc(=O)n2c1`
Result string: > 100 µM (inactive)

Query string: Supply recorded GI50 for `NNc1nncn1N` here.
Result string: > 100 µM (inactive)

----------
# Test system: SW-620
# Test protocol: NCI tumour cell line growth inhibition, 48 h
The source made the active and inactive calls. No stated cut-off is given here; in the data, active = GI50 up to about 1.1 µM and inactive = higher.
Give your call using only these classes: yes for active, no for inactive

Query string: Please state the recorded outcome for this molecule: `CC(C)=CCc1c2c(c3occ(-c4ccc(O)c(O)c4)c(=O)c3c1O)C=CC(C)(C)O2`
Result string: yes

Query string: Fill in: this test's call for CC(C)C(Br)CCC1=CCC(Br)(Br)C1 (configuration not stated) is ___
Result string: no

Query string: Per the records of this test, what outcome belongs to `COc1cc(-c2nc(SC)nc3c2CCc2ccccc2-3)cc(OC)c1OC` ?
Result string: no

Query string: Each molecule tested received a call. Report the one for CC(C)(Cl)C(Cl)CC/C(CBr)=C(\Cl)CBr (configuration not stated) .
Result string: no

Query string: Outcome? `C(CCc1nnc2c(n1)CCCC2)Cc1nnc2c(n1)CCCC2`
Result string: no

Query string: For this molecule, state the assay outcome: `Cc1nc(N)c(-c2ccccc2)s1`
Result string: no

Query string: Lab log entry: `COC(=O)c1cc2c(c(C(=O)OC)c1)CCC2` — outcome as called in the assay?
Result string: no

Query string: How did this test come out for `CC1=Cc2ccc(C)cc2C(=O)C1=O` ?
Result string: no

Query string: How was CC1=NN(c2ccccc2)C2(C1)C(Cl)C(=O)N2c1nc2ccccc2s1 (configuration not stated) classified in this test?
Result string: no

Query string: Given `[N-]=[N+]=Nc1c([N+](=O)[O-])c(Cl)nc2ccccc12` , state the outcome it received in this test.
Result string: yes

Query string: Record lookup: outcome of this test for `CC1=CC[C@H](C[C@H](C#CCCCC2OCCO2)O[Si](C(C)C)(C(C)C)C(C)C)C(=O)CC1` ?
Result string: no

Query string: In this assay, the call recorded for COc1ccc(CC2C3=C(CCCC3)CCN2C)cc1 (configuration not stated) was what?
Result string: no

Query string: Fill in: this test's call for `C/C(=N\NC(=O)c1ccccc1O)c1cccc(/C(C)=N/NC(=O)c2ccccc2O)n1.[Cl-].[Cl-].[Zn+2]` is ___
Result string: no

Query string: Recorded test call requested for Cc1ccc2c(c1)-c1c3c(nn1-c1ccccc1)-c1ccccc1SC3O2 (configuration not stated)
Result string: no

Query string: Hello, I am checking results. What call was entered for `CCOc1ccc(OCC)c([P+](c2ccccc2)(c2ccccc2)c2ccccc2)c1` ?
Result string: yes

Query string: Recorded call for CC(=O)NC(C)c1ccc(/N=N/N2CCCC2)cc1 (configuration not stated) ?
Result string: no

Query string: What is the recorded call for this molecule in the test? O=C(O)CCC(NC(=O)c1ccccc1)C(=O)O (configuration not stated)
Result string: no

Query string: For `CCO/C=C(\C(=O)OC)S(=O)(=O)c1ccc(C)cc1` , what call appears in the results of this test?
Result string: no

Query string: I'd appreciate the recorded outcome for O=C(CC1(O)C(=O)Nc2c(Cl)cccc21)c1ccccc1 (configuration not stated) from this test.
Result string: no

Query string: State the result this test recorded for `Cc1ccc2c(c1)SC1=Nc3sc4cc(C)ccc4[n+]3CN12` .
Result string: no

Query string: Please indicate how the test categorized `CCC(=O)/C(=C\I)c1ccccc1` .
Result string: no

Query string: Answer briefly: the call reported for `O=C(CSc1nc2ccc(I)cc2c(=O)n1Cc1ccccc1)N/N=C/c1ccccc1` in this assay.
Result string: no

Query string: Given `O=c1cc(/N=N/c2ccc(O)cc2)[nH]c(=O)[nH]1` , state the outcome it received in this test.
Result string: no

Query string: Record request — test call for `O=C(NC(Nc1ccc(F)cc1)(C(F)(F)F)C(F)(F)F)C(C(F)(F)F)C(F)(F)F`
Result string: no

Query string: Kindly provide the recorded test outcome for the following molecule: COc1cccc(/C=C2\CCC(C)(CN(C)C)C2=O)c1 (configuration not stated)
Result string: no

Query string: Can you look up the reported call for `CC(C)OC(=O)c1ccc(NCC2=CC(=O)C=CC2=O)cc1Cl` for me?
Result string: no

Query string: # lookup: test call for `CCOC(=O)c1cnc2oc3ccc(O)cc3c2c1C`
Result string: no

Query string: Each molecule tested received a call. Report the one for `CCc1n[nH]c(=O)n1/N=C(\C)c1ccc([N+](=O)[O-])cc1` .
Result string: no

Query string: GET /call?item= `O=C1C=CC(=O)c2c(O)c(N3CCN(c4ccccn4)CC3)cc(O)c21` returns the recorded outcome of this test.
Result string: no

Query string: // param item: `Nc1nc(NNc2ccc(Cl)c(Cl)c2)cc(=O)[nH]1` ; yields the recorded call
Result string: no

Query string: Given `CC(C)=NNc1cnnc2ccc([N+](=O)[O-])cc12` , state the outcome it received in this test.
Result string: no

Query string: Call for entry `O=C(O)c1cc2c(ncc3c(=O)n(-c4ccccc4)[nH]c32)s1` :
Result string: no

Query string: I would be grateful if you could indicate the recorded call for N#CNCC(COCc1ccccc1)c1ccccc1 (configuration not stated) .
Result string: no

Query string: // return assay outcome for `COc1ccc(C(N)=O)c(OC)c1OCc1ccccc1`
Result string: no

Query string: Short answer needed: outcome of this test for `O=C(CCN(C(=O)O)S(=O)(=O)c1ccc(NC(=O)c2ccccc2)cc1)Nc1ccccc1` ?
Result string: no

Query string: Can you look up the reported call for `NNC(=O)CSc1nc2ccccc2c(=O)n1N` for me?
Result string: no

Query string: I would be grateful if you could indicate the recorded call for `COc1ccc(-c2cc(-c3ccccc3)nc(N)n2)c(O)c1` .
Result string: no
